- Test target: Retinoic acid receptor beta (Homo sapiens, UniProt P10826)
- Sequence (P10826 whole entry): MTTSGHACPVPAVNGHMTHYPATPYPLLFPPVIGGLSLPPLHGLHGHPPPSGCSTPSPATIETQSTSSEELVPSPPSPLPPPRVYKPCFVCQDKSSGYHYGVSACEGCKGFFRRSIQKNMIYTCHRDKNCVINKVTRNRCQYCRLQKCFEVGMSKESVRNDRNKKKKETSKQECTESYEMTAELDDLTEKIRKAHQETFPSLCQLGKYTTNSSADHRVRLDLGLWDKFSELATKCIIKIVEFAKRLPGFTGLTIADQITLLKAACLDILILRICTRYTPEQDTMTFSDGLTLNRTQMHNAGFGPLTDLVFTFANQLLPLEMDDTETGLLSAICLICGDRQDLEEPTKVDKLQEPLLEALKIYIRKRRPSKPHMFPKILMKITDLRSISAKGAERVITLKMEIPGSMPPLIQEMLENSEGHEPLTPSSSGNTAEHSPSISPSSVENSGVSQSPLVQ
- Assay name: Transcriptional activation for RAR beta receptor
Reported endpoint: EC50 (nM)

> print(dat)
                                 mol.smiles                               test.target  numeric.result
1  C/C(=C\c1ccc2c(c1)C(C)(C)CCC2(C)C)c1ccc(C(=O)O)cc1  Retinoic acid receptor beta (Homo sapiens, UniProt P10826)             0.5

a: C/C(=C\c1ccc(C(=O)O)cc1)c1cc2c(cc1C)C(C)(C)CCC2(C)C
b: Cc1cc2c(cc1/C=C/c1ccc(C(=O)O)cc1)C(C)(C)CCC2(C)C
Query: Lower EC50: a or b ? # respond with the chosen item's label
Reply: b
